Listed here are compounds together with their documented DC50.
- Test system: androgen receptor (AR) in LNCaP and/or VCaP cells
- TEST PROTOCOL: Androgen Receptor ELISA assay (AR degradation)
- Type: cell-based
- CONDITION INFO: LNCaP and/or VCaP cells; 5 hours incubation; media with R1881; read-out: DC50 Code* (degradation of AR ELISA)

Worked cases, answers included:
{"COMPOUND": "CCOc1cc(O[C@H]2CC[C@H](NC(=O)c3cnc(N4CCC(CN(C(C)C)[C@H]5C[C@H](Oc6ccc7c(c6)C(=O)N(C6CCC(=O)NC6=O)C7=O)C5)CC4)cn3)CC2)ccc1C#N (stereo partly shown)", "TEST VALUE": "< 1 nM"}
{"COMPOUND": "Cc1cc(O[C@H]2CC[C@H](NC(=O)c3cnc(N4CCC(CN(C(C)C)[C@H]5C[C@H](Oc6cc(F)c7c(c6)C(=O)N(C6CCC(=O)NC6=O)C7=O)C5)CC4)cn3)CC2)cc(C)c1C#N (stereo partly shown)", "TEST VALUE": "< 1 nM"}
{"COMPOUND": "CC(C)N(CC1CCN(c2cnc(C(=O)N[C@H]3CC[C@H](Oc4ccc(C#N)c(Cl)c4)CC3)cn2)CC1)[C@H]1C[C@H](Oc2ccc3c(c2)C(=O)N(C2CCC(=O)NC2=O)C32CC2)C1 (stereo partly shown)", "TEST VALUE": "> 100 nM"}
{"COMPOUND": "COc1cc(O[C@H]2C[C@H](N(CC3CCN(c4ncc(C(=O)N[C@H]5CC[C@@H](Oc6cc(C)c(C#N)c(C)c6)C5)cn4)CC3)C(C)C)C2)cc2c1C(=O)N(C1CCC(=O)NC1=O)C2=O (stereo partly shown)", "TEST VALUE": "> 100 nM"}

Find the recorded DC50 belonging to COCCN(CC1CCN(c2cnc(C(=O)N[C@H]3CC[C@H](Oc4ccc(C#N)c(Cl)c4)CC3)cn2)CC1)[C@H]1C[C@H](Oc2ccc3c(c2)C(=O)N(C2CCC(=O)NC2=O)C3=O)C1 (stereo partly shown) and report it.
< 1 nM

Find the recorded DC50 belonging to N#Cc1ccc(O[C@H]2CC[C@H](NC(=O)c3ccc(N4CCC(CN5CCN(c6ccc7c(c6)C(=O)N(C6(F)CCC(=O)NC6=O)C7=O)CC5)CC4)nn3)CC2)cc1Cl (mixture of isomers) and report it.
< 1 nM

Find the recorded DC50 belonging to CC(C)N(CC1CCN(c2cnc(C(=O)N[C@H]3CC[C@H](Oc4ccc(C#N)c(Cl)c4)CC3)cn2)CC1)[C@H]1C[C@H](Oc2ccc3c(c2)C(=O)N([C@@H]2C(=O)NC(=O)C[C@H]2C)C3=O)C1 and report it.
> 100 nM

Find the recorded DC50 belonging to COCC(C)N(CC1CCN(c2cnc(C(=O)N[C@H]3CC[C@H](Oc4ccc(C#N)c(Cl)c4)CC3)cn2)CC1)[C@H]1C[C@H](Oc2ccc3c(c2)C(=O)N(C2CCC(=O)NC2=O)C3=O)C1 (stereo partly shown) and report it.
< 1 nM

Find the recorded DC50 belonging to CC(C)N(CC1CN(c2ncc(C(=O)N[C@H]3CC[C@H](Oc4ccc(C#N)c(Cl)c4)CC3)cn2)C1)[C@H]1C[C@H](Oc2ccc3c(c2)C(=O)N(C2CCC(=O)NC2=O)C3=O)C1 (stereo partly shown) and report it.
< 1 nM

Find the recorded DC50 belonging to COc1cc(O[C@H]2C[C@H](N(CC3CCN(c4ncc(C(=O)NC5CC6CN(Cc7cc(C)c(C#N)c(C)c7)CC6C5)cn4)CC3)C(C)C)C2)cc2c1C(=O)N(C1CCC(=O)NC1=O)C2=O (stereo partly shown) and report it.
> 100 nM

###

Listed here are compounds together with their documented DC50.
- Tested on: androgen receptor (AR) in LNCaP and/or VCaP cells
- TEST PROTOCOL: Androgen Receptor ELISA assay (AR degradation)
- Assay type: cell-based
- CONDITION INFO: LNCaP and/or VCaP cells; 5 hours incubation; media with R1881; read-out: DC50 Code* (degradation of AR ELISA)

Worked cases, answers included:
{"COMPOUND": "COc1cc(O[C@H]2C[C@H](N(CC3CCN(c4ncc(C(=O)NC5CC6(C5)CN(Cc5cc(C)c(C#N)c(C)c5)C6)cn4)CC3)C(C)C)C2)cc2c1C(=O)N(C1CCC(=O)NC1=O)C2=O (mixture of isomers) [Compound 12]", "TEST VALUE": "> 100 nM"}
{"COMPOUND": "COc1cc(O[C@H]2C[C@H](N(CC3CCN(c4cnc(C(=O)N[C@H]5CC[C@H](Oc6ccc(C#N)c(Cl)c6)CC5)cn4)CC3)C(C)C)C2)cc2c1C(=O)N(C1CCC(=O)NC1=O)C2=O (stereo partly shown) [Compound 14]", "TEST VALUE": "< 1 nM"}
{"COMPOUND": "COc1cc(O[C@H]2CC[C@H](NC(=O)c3cnc(N4CCC(CN(C(C)C)[C@H]5C[C@H](Oc6cc(OC)c7c(c6)C(=O)N(C6CCC(=O)NC6=O)C7=O)C5)CC4)cn3)CC2)ccc1C#N (stereo partly shown) [Compound 38]", "TEST VALUE": "< 1 nM"}
{"COMPOUND": "N#Cc1ccc(O[C@H]2CC[C@H](NC(=O)c3ccn(C4CCC(CN5CCN(c6ccc7c(c6)CN(C6CCC(=O)NC6=O)C7=O)CC5)CC4)n3)CC2)cc1Cl (stereo partly shown) [Compound 71]", "TEST VALUE": "1 to 10 nM"}

Find the recorded DC50 belonging to COc1cc(O[C@@H]2CC[C@@H](NC(=O)c3cnc(N4CCC(CN(C(C)C)[C@H]5C[C@H](Oc6ccc7c(c6)C(=O)N(C6CCC(=O)NC6=O)C7=O)C5)CC4)cn3)C2)ccc1C#N (stereo partly shown) [Compound 10] and report it.
> 100 nM

Find the recorded DC50 belonging to COc1cc(O[C@H]2C[C@H](N(CC3CCN(c4ncc(C(=O)NC5CC6(C5)CC(Oc5cc(C)c(C#N)c(C)c5)C6)cn4)CC3)C(C)C)C2)cc2c1C(=O)N(C1CCC(=O)NC1=O)C2=O (stereo partly shown) [Compound 1] and report it.
1 to 10 nM

Find the recorded DC50 belonging to COc1cc(O[C@H]2C[C@H](N(CC3CCN(c4ncc(C(=O)N[C@H]5CC[C@H](Oc6cc(C)c(C#N)c(C)c6)C5)cn4)CC3)C(C)C)C2)cc2c1C(=O)N(C1CCC(=O)NC1=O)C2=O (stereo partly shown) [Compound 5] and report it.
> 100 nM

Find the recorded DC50 belonging to COc1cc(O[C@H]2CC[C@H](NC(=O)c3cnc(N4CCC(CN(C(C)C)[C@H]5C[C@H](Oc6ccc7c(c6)C(=O)N(C6CCC(=O)NC6=O)C7=O)C5)CC4)cn3)C2)ccc1C#N (stereo partly shown) [Compound 7] and report it.
> 100 nM

Find the recorded DC50 belonging to COCCN(CC1CCN(c2cnc(C(=O)N[C@H]3CC[C@H](Oc4ccc(C#N)c(Cl)c4)CC3)cn2)CC1)[C@H]1C[C@H](Oc2ccc3c(c2)CN(C2CCC(=O)NC2=O)C3=O)C1 (stereo partly shown) [Compound 16] and report it.
< 1 nM

Find the recorded DC50 belonging to N#Cc1ccc(O[C@H]2CC[C@H](NC(=O)c3cnc(N4CCC(CN(CC5COC5)[C@H]5C[C@H](Oc6ccc7c(c6)C(=O)N(C6CCC(=O)NC6=O)C7=O)C5)CC4)cn3)CC2)cc1Cl (stereo partly shown) [Compound 53] and report it.
< 1 nM

###

- Tested on: androgen receptor (AR) in LNCaP and/or VCaP cells
- TEST PROTOCOL: Androgen Receptor ELISA assay (AR degradation)
- Assay type: cell-based
- CONDITION INFO: LNCaP and/or VCaP cells; 5 hours incubation; media with R1881; read-out: DC50 Code* (degradation of AR ELISA)
MEASURED PARAMETER: DC50

Worked cases, answers included:
{"MOLECULE": "COc1cc(O[C@H]2C[C@H](N(CC3CCN(c4ncc(C(=O)N[C@@H]5CC[C@H](Oc6cc(C)c(C#N)c(C)c6)C5)cn4)CC3)C(C)C)C2)cc2c1C(=O)N(C1CCC(=O)NC1=O)C2=O (some centres unmarked) [Compound 4]", "TEST VALUE": "> 100 nM"}
{"MOLECULE": "CC(C)N(CC1CCN(c2ncc(C(=O)N[C@H]3C(C)(C)[C@H](Oc4ccc(C#N)c(Cl)c4)C3(C)C)cn2)CC1)[C@H]1CC[C@H](Oc2ccc3c(c2)C(=O)N(C2CCC(=O)NC2=O)C3=O)CC1 (some centres unmarked) [Compound 26]", "TEST VALUE": "< 1 nM"}
{"MOLECULE": "N#Cc1ccc(O[C@H]2CC[C@H](NC(=O)c3cnc(N4CCC(CN(CC5COC5)[C@H]5C[C@H](Oc6ccc7c(c6)C(=O)N(C6CCC(=O)NC6=O)C7)C5)CC4)cn3)CC2)cc1Cl (some centres unmarked) [Compound 48]", "TEST VALUE": "< 1 nM"}
{"MOLECULE": "CC(C)N(CC1CCN(c2ncc(C(=O)NC3CCC(Oc4ccc(C#N)c(Cl)c4)CC3)cn2)CC1)C1CCC(Oc2ccc3c(c2)C(=O)N(C2CCC(=O)NC2=O)C3=O)CC1 (centres unmarked) [Compound 59]", "TEST VALUE": "< 1 nM"}

Now for a further molecule.
Find the recorded DC50 belonging to COc1cc(O[C@H]2CC[C@H](NC(=O)c3cnc(N4CC5(CC(CN(C(C)C)[C@H]6C[C@H](Oc7ccc8c(c7)CN(C7CCC(=O)NC7=O)C8=O)C6)C5)C4)cn3)CC2)ccc1C#N (some centres unmarked) [Compound 27] and report it.
< 1 nM
